# Test system: MS2 coat protein
# experiment: apparent KD of MS2 coat protein; higher = weaker reporter binding
# test.conditions: Eterna round: R107; input ligand: arginine 13.2 mM
Binary classification by apparent KD of MS2 coat protein, with 40 nM as an inclusive lower bound for condition met; all other cases are condition not met.

1) GGCUCCAGCCGAAGGAGCGCUAGAAGGUGACAUGAGGAUCACCCAUGUGUGUGAUGUGGCUAGCAGGUAGGUCGCGGAGGAGCUU [Exclusion - Arginine B (Freestyle 19)] = condition met
2) CCUGCGUUUCUUCUUUCGCAGGAGGAUGAUACCAGUAGGGAAACCUACCCUUGGCAGCAUGGGACAUGAGGAUCACCCAUGUGGA [SSThA NP+V+V2 #1] = condition met
3) AGCAAGUUCGGAAGGAGCGGUACAUGAGGAUCACCCAUGUAUUCAAUCGUGAUCGGAACGUGCCAGGUAGGUCGCCGAAUGCGUC [XArg-B1] = condition not met
4) AGCGACAUGCAUGAUACCAGCUACAUGAGGAUCACCCAUGUACGUCAGUAAUGACUGUGUAGCCCUUGGCAGCAUAGAGCAUGUA [Exclusion - Theophylline B (Freestyle 14)] = condition not met

q: Hi team, for ACCUACACGGAGACGUGUAGGAGUAAUGAUACCAGCAUGGAGACAUGCCCUUGGCAGCGUUACAUGAGGAUCACCCAUGUAGGUU [ETHA #4] , is the recorded apparent KD of MS2 coat protein at or above 40 nM?
a: condition met

q: Determine whether this sequence has apparent KD of MS2 coat protein no lower than 40 nM: GCACUACAUGAGGAUCACCCAUGUGCAGAUACCAGAGGUGUAUGCCUCCCUUGGCAGCUGAGUAGGUCUGGAGGGCUAUUGGUUU [Same State Theophylline A GF14]
a: condition not met

q: In plain terms: is recorded apparent KD of MS2 coat protein at least 40 nM for AGCACGGUGAUGGUAGCCGGACGCUAGGUACGAGGACCGGUACGGCCGCCACUCGAAGUCCUACGACAUGAGGAUCACCCAUGUA [Same State Trp A GF13] ?
a: condition not met

q: Dear colleague, could you confirm whether AGUGUAUCCAUCGAUACCAGCCACCACCGAUAGACCACAUGAGGAUCACCCAUGUUGGGUGGCCCUUGGCAGCGGUGGCUGUGUA [Same State - Theophylline B Attempt #2 (HarryS)] has apparent KD of MS2 coat protein at or above 40 nM?
a: condition met

q: Tell me whether apparent KD of MS2 coat protein is at least 40 nM here: UUAUUUAUAAUUGAUACCAGUUUAAUGGCCGCAAAUCCUGACAUGAGGAUCACCCAUGUAAGCCCUUGGCAGCGGUUAUGGGUUU [XTheo B #25]
a: condition not met

q: Is apparent KD of MS2 coat protein for UGUAUGUGAUUUGAUACCAGACCAGCUGGUGUUAGAUGAGGAUCACCCAUCUAGGUUUGGGUCCCUUGGCAGCAAAUCGCAUACU [SS Theo B #24 Ms13] at or above 40 nM?
a: condition not met

q: Hello, I need to know if AUUGGGUUAUCAGAUACCAGACUAUUCUAGACAUGAGGAUCACCCAUGUAUUGGGUUUUCGUCCCUUGGCAGCUGUUAAGUUUAA [JR_SSTheophyB_Sub005] has measured apparent KD of MS2 coat protein not below 40 nM. Thanks!
a: condition met

q: Please check the record AACAUGAGGAUCACCCAUGUCUGAACUGAAGGAGCGCUAAAUAAGGCAGGUAGGUCGCGGAAUUUUGUGUAUAUAUAUAUAUGGG [9.G] and state if its apparent KD of MS2 coat protein is at or above 40 nM.
a: condition not met

q: Please tell me: is the sequence AUAAUGGGUUUCGGACUAUCAUGGAAUGAUACCAGAUACUUAGAAAUCCCUUGGCAGCAUGAGGACAUGAGGAUCACCCAUGUAU [Th A Ex t1] at or over 40 nM in terms of apparent KD of MS2 coat protein?
a: condition met

q: Hi, just wondering whether ACGUCUCGUUUACUCGUGGGUUAGCUCGAUACCAGUAUUCAAACUUACCCUUGGCAGCGACAUGAGGAUCACCCAUGUGCGAAGA [XTheo A #23] shows apparent KD of MS2 coat protein of 40 nM or higher.
a: condition not met

q: Reported apparent KD of MS2 coat protein at or above 40 nM? GACGCAUGAGUUGGAACAGCUCAUGGGUCGCGAGGACCGGUACGGCCGCCACUCGGCUGUACAUGAGGAUCACCCAUGUCAGGGU [#1 Same State - Tryptophan A Attempt #30 (HarryS)]
a: condition met

q: Hi team, for AACAUGAGGAUCACCCAUGUGUCCUCGAAACGAGGACCGGUACGGCCGCCACUCGAAUAAGCUGUUGACGAAAAGUCAGCAGCAA [Mat - Exclusion - Trytophan A - D19] , is the recorded apparent KD of MS2 coat protein at or above 40 nM?
a: condition met

q: Check this sequence for apparent KD of MS2 coat protein at or above 40 nM: UGUAUGGACUGAAGGAGCGCAUCAAAAUAACAUGAGGAUCACCCAUGUAAGGCGAAAGCCGUGCAGGUAGGUCGCAGUCCAUACU [ArgBX 3]
a: condition not met

q: Can GGGUACAUCGCGGCCGCCACUGGUGUAAAUACAUGAGGAUCACCCAUGUCGAUGGAGACAUCGGGUAGGACCGGGUGAUGUACCG be said to have apparent KD of MS2 coat protein at or above 40 nM?
a: condition not met
